# ASSAY PROTOCOL: PK properties in SD rats with different concentrations of alkyl glycoside (0.05% and 5% DDM)
# Assay type: in vivo
# SETTINGS: rat, in vivo, intranasal, 0.05% alkyl glycoside
ASSAY READOUT: Tmax (min)
Kindly answer with a numeric value in min, unit omitted.

Lab note: measured Tmax of "Cc1cc(C[C@@H](NC(=O)N2CCC(c3cc4c([nH]c3=O)SCCC4)CC2)C(=O)N2CCN(C3CCN(C)CC3)CC2)cc2cn[nH]c12" was 15

----------
# ASSAY PROTOCOL: PK properties in monkeys with or without alkyl glycoside, intravenous route and nasal spray
# Format: in vivo, cynomolgus monkey
# SETTINGS: male, cynomolgus monkey, plasma, other: intranasal (nasal spray), 1 mg/kg, cynomolgus monkeys, IN@1 mg/kg (Solvent 2, 0.2% dodecyl-β-D-maltoside); read-out: Bioavailability F%
ASSAY READOUT: bioavailability (%)
Kindly answer with a numeric value in %, unit omitted.

Lab note: measured bioavailability of "Cc1cc(C[C@@H](NC(=O)N2CCC(c3cc4c([nH]c3=O)SCC4)CC2)C(=O)N2CCN(C3CCN(C)CC3)CC2)cc2cn[nH]c12" was 26.4
